tested on: ST8814; assay: relative IC50 (inflection point of fitted dose-response curve, CellTiter-Glo viability, 72 h; top asymptote may be below 50% inhibition); higher = less potent
relative IC50 values, listed per item

COMPOUND	SYSTEM_TESTED	OUTPUT_UNIT	LT_GT_EQ	relative IC50
CN(C)C/C=C/C(=O)Nc1cc2c(Nc3ccc(F)c(Cl)c3)ncnc2cc1O[C@H]1CCOC1	ST8814	nM	>	1000
C/C(=C\c1csc(C)n1)[C@@H]1C[C@@H]2O[C@]2(C)CCC[C@H](C)[C@H](O)[C@@H](C)C(=O)C(C)(C)[C@@H](O)CC(=O)N1 [Ixabepilone]	ST8814	nM	=	363
CCCS(=O)(=O)Nc1ccc(F)c(C(=O)c2c[nH]c3ncc(-c4ccc(Cl)cc4)cc23)c1F	ST8814	nM	>	10000
COc1cccc2cc(-c3nc([C@H]4CC[C@H](C(=O)O)CC4)n4ncnc(N)c34)[nH]c12	ST8814	nM	=	883
COc1cccc2c1C(=O)c1c(O)c3c(c(O)c1C2=O)C[C@@](O)(C(=O)CO)C[C@@H]3O[C@H]1C[C@H](N)[C@H](O)[C@H](C)O1	ST8814	nM	=	130
COc1cc(F)c(F)c(Nc2ccc(I)cc2F)c1NS(=O)(=O)C1(C[C@H](O)CO)CC1	ST8814	nM	=	451
CNNCc1ccc(C(=O)NC(C)C)cc1	ST8814	nM	>	10000

* * *

test system: S462; test: % inhibition of CellTiter-Glo viability at highest tested concentration (72 h), relative to DMSO and benzethonium chloride controls; higher = more inhibition

COMPOUND	% inhibition (%)
O=C(CCCCCCC(=O)Nc1ccc([C@H]2O[C@@H](CSc3nc(-c4ccccc4)c(-c4ccccc4)o3)C[C@@H](c3ccc(CO)cc3)O2)cc1)NO [Tubacin] (max concentration tested 10000 nM)	64.9
CCOc1cc2ncc(C#N)c(Nc3ccc(OCc4ccccn4)c(Cl)c3)c2cc1NC(=O)/C=C/CN(C)C [Neratinib] (max concentration tested 1000 nM)	64.8
CCNC(=O)CCC/C=C\C[C@@H]1[C@@H](/C=C/[C@@H](O)CCc2ccccc2)[C@H](O)C[C@@H]1O [Bimatoprost] (max concentration tested 5500 nM)	9.55
CC(C)(C)NC(=O)[C@H]1CC[C@H]2[C@@H]3CC[C@H]4NC(=O)C=C[C@]4(C)[C@H]3CC[C@]12C [Finasteride] (max concentration tested 10000 nM)	2.86
CCN(CC)CCCC(C)Nc1c2ccc(Cl)cc2nc2ccc(OC)cc12 (stereo not given) [Mepacrine aq] (max concentration tested 50000 nM)	95.1

* * *

test system: HSC1; assay: relative IC50 (inflection point of fitted dose-response curve, CellTox-Green cytotoxicity, 72 h; top asymptote may be below 50%); higher = less potent

SMILES_TEXT	relative IC50
CCN(CCO)CCCOc1ccc2c(Nc3cc(CC(=O)Nc4cccc(F)c4)[nH]n3)ncnc2c1	> 1 µM
Cc1c(CN2CCN(C(=O)[C@H](C)O)CC2)sc2c(N3CCOCC3)nc(-c3cnc(N)nc3)nc12	> 10 µM
Nc1ccccc1NC(=O)c1ccc(CNC(=O)OCc2cccnc2)cc1	> 10 µM
COc1ccc(C2=N[C@@H](c3ccc(Cl)cc3)[C@@H](c3ccc(Cl)cc3)N2C(=O)N2CCNC(=O)C2)c(OC(C)C)c1	> 10 µM
CCCCCOC(=O)Nc1nc(=O)n([C@@H]2O[C@H](C)[C@@H](O)[C@H]2O)cc1F	> 10 µM
Clc1ccc(Nc2nnc(Cc3ccncc3)c3ccccc23)cc1	> 10 µM
CN(C)/N=N/c1[nH]cnc1C(N)=O	> 10 µM
CS(=O)(=O)OCCCCOS(C)(=O)=O	> 100 µM

* * *

test system: S462; assay: % inhibition of CellTiter-Glo viability at highest tested concentration (72 h), relative to DMSO and benzethonium chloride controls; higher = more inhibition

MOLECULE	% inhibition [%]
C=CCN(/C=C1/C(=O)O[C@H](COC)[C@@]2(C)C1=C(O)C(=O)C1=C2[C@H](OC(C)=O)C[C@]2(C)C(=O)CC[C@@H]12)CC=C [Sonolisib] (max concentration tested 10000 nM)	17.1
CC1=C2C[C@H]3[C@@H](CC=C4C[C@@H](O)CC[C@@]43C)[C@@H]2CC[C@]12O[C@@H]1C[C@H](C)CN[C@H]1[C@H]2C [Cyclopamine] (max concentration tested 10000 nM)	-1.34
Cc1cc2c(F)c(Oc3ncnn4cc(OC[C@@H](C)O)c(C)c34)ccc2[nH]1 [Brivanib] (max concentration tested 1000 nM)	3.36

* * *

system: YST-1; test: drug sensitivity score (DSS, CellTiter-Glo viability, 72 h) (DSS (dimensionless)); higher = more sensitive; extreme values may be limits of the assay
ASSAY_METRIC: drug sensitivity score

COMPOUND	ASSAY_METRIC	RESULT_NUMBER
CN(C)c1cc2c(cc1Sc1nc3c(N)nccc3n1CCNCC(C)(C)C)OCO2 [CUDC-305] (max concentration tested 10000 nM)	drug sensitivity score	12.6
CNC(=O)c1ccc(N2C(=S)N(c3cnc(C#N)c(C(F)(F)F)c3)C(=O)C23CCC3)cc1F [ARN 509] (max concentration tested 10000 nM)	drug sensitivity score	0
CC[C@H](C)C(=O)O[C@H]1C[C@H](O)C=C2C=C[C@H](C)[C@H](CC[C@@H](O)C[C@@H](O)CC(=O)O)[C@H]21 [Pravastatin] (max concentration tested 10000 nM)	drug sensitivity score	0
O[C@H]1CC[C@H](Nc2ncc3nc(Nc4c(F)cc(F)cc4F)n([C@H]4CCOC4)c3n2)CC1 [Tanzisertib] (max concentration tested 10000 nM)	drug sensitivity score	1.56
CNC(=O)CN1CCC(Oc2cc3c(Nc4cccc(Cl)c4F)ncnc3cc2OC)CC1 [Sapitinib] (max concentration tested 1000 nM)	drug sensitivity score	0.48
C=C(c1ccc(C(=O)O)cc1)c1cc2c(cc1C)C(C)(C)CCC2(C)C [Bexarotene] (max concentration tested 10000 nM)	drug sensitivity score	0

* * *

test system: HS-Sch-2; assay: relative IC50 (inflection point of fitted dose-response curve, CellTiter-Glo viability, 72 h; top asymptote may be below 50% inhibition); higher = less potent
relative IC50 overview
ASSAY_METRIC: relative IC50 (µM)

MOLECULE	LT_GT_EQ	RESULT_NUMBER
C[C@@H]1CN(CC(=O)Nc2ccc3c(c2)Cc2cccc(-c4cc(=O)cc(N5CCOCC5)o4)c2S3)C[C@H](C)O1	=	4.24
COc1cc(F)c(F)c(Nc2ccc(I)cc2F)c1NS(=O)(=O)C1(C[C@H](O)CO)CC1	=	1.62
COc1ccc2c(OCc3nnc4ccc(-c5ccccc5)nn34)ccnc2c1	>	2.5
COc1ccc(COc2cc3oc(=O)c4cc(C(C)O)ccc4c3cc2OC)cc1 (configuration not stated)	>	10
COc1cc2ncnc(Nc3ccc(F)c(Cl)c3)c2cc1NC(=O)/C=C/CN1CCCCC1	=	0.148
Cn1ncnc1[C@H]1c2n[nH]c(=O)c3cc(F)cc(c23)N[C@@H]1c1ccc(F)cc1	=	0.105
Cc1cnc(Nc2ccc(OCCN3CCCC3)cc2)nc1Nc1cccc(S(=O)(=O)NC(C)(C)C)c1	=	1.18
O=S(=O)(c1cccc2cnccc12)N1CCCNCC1	=	16.7
N#CCNC(=O)c1ccc(-c2ccnc(Nc3ccc(N4CCOCC4)cc3)n2)cc1	=	1.64
Cc1ccc(F)c(NC(=O)Nc2ccc(-c3cccc4[nH]nc(N)c34)cc2)c1	>	1
Nc1cccc2c1C(=O)N(C1CCC(=O)NC1=O)C2=O (configuration not stated) [Pomalidomide]	>	10
O=C(Nc1cc(Cl)cc2c1[nH]c1cnccc12)c1cccnc1	>	25
CCCC(CCC)C(=O)O	>	1000
COc1cc(Nc2c(C#N)cnc3cc(OCCCN4CCN(C)CC4)c(OC)cc23)c(Cl)cc1Cl	=	1.6
Cc1[nH]c2ccccc2c1CCNCc1ccc(/C=C/C(=O)NO)cc1	=	0.0254
C/C(=C\c1csc(C)n1)[C@@H]1C[C@@H]2O[C@]2(C)CCC[C@H](C)[C@H](O)[C@@H](C)C(=O)C(C)(C)[C@@H](O)CC(=O)O1	=	0.00137
CC(C)NC[C@@H](C(=O)N1CCN(c2ncnc3c2[C@H](C)C[C@H]3O)CC1)c1ccc(Cl)cc1	=	1.08

* * *

system: HS-Sch-2; experiment: drug sensitivity score (DSS, CellTiter-Glo viability, 72 h) (DSS (dimensionless)); higher = more sensitive; extreme values may be limits of the assay
Rule: drug sensitivity score under 10 gives Not fulfilled, otherwise Fulfilled.

COMPOUND	SYSTEM_TESTED	ASSIGNED_LABEL
Cc1cc(C(=O)NOCCO)c(Nc2ccc(I)cc2F)n(C)c1=O [AZD-8330] (max concentration tested 10000 nM)	HS-Sch-2	Fulfilled
Cn1cc(-c2cnn3c(N)c(Br)c([C@@H]4CCCNC4)nc23)cn1 [MK-8776] (max concentration tested 2500 nM)	HS-Sch-2	Not fulfilled
CCn1c(C(=O)N(C2CC2)C2CC2)cc2c3c(ncn3C)c(Nc3cc(C)n(C)n3)nc21 (max concentration tested 10000 nM)	HS-Sch-2	Not fulfilled
O=C(O)c1ccc(-c2c[nH]c3ncc(-c4ccccc4)cc23)cc1C1CCCC1 (max concentration tested 10000 nM)	HS-Sch-2	Not fulfilled
COc1cc(OC2CCN(C)CC2)ccc1Nc1ncc2c(n1)n(C1CCCC1)c(=O)n2C [AZ 3146] (max concentration tested 10000 nM)	HS-Sch-2	Not fulfilled
